Each entry below lists one item and its recorded GI50 value.
# Test system: TK-10 renal
# method: NCI tumour cell line growth inhibition, 48 h
measure: GI50

- cpdSmiles: "NC(=NC1CCCCCCC1)c1ccc(N2CCN(c3ccc(C(N)=NC4CCCCCCC4)cc3)CC2)cc1"
  targetOrSystem: "TK-10 renal"
  measure: "GI50"
  result: "10.9 µM"
- cpdSmiles: "N#Cc1c2cccnc2c2nnc3cc(Cl)c(Cl)cc3n12"
  targetOrSystem: "TK-10 renal"
  measure: "GI50"
  result: "> 100 µM"
- cpdSmiles: "C[C@H]1[C@H](C)CC[C@]2(C(=O)N3CCN(C)CC3)CC[C@]3(C)C(=CC[C@@H]4[C@@]5(C)C/C(=C/c6cccnc6)C(=O)C(C)(C)[C@@H]5CC[C@]43C)[C@H]12"
  targetOrSystem: "TK-10 renal"
  measure: "GI50"
  result: "1.54 µM"
